Source: ChEMBL document CHEMBL4295262

Method description: Electrical activity assay on cell lines treated with a given drug. DMSO was used as a vehicle and a control, unblinded dofetilide was used as a control.
Conditions used: human, ipsc-cm, 100 µM
Parameter: APDc
Just the number, please, no unit after it.

Give its APDc value. Item: CC(C)NCC(O)c1ccc(NS(C)(=O)=O)cc1 (centres undefined)
79.39

Repeat with COc1ccccc1OCC(O)CN1CCN(CC(=O)Nc2c(C)cccc2C)CC1 (centres undefined)
60.49

Now consider CC(C)N(CCC(C(N)=O)(c1ccccc1)c1ccccn1)C(C)C (centres undefined) [DISOPYRAMIDE] .
66.87

Same for Cc1cccc(C)c1OCC(C)N (centres undefined)
74.46
